tested on: NCI-H226 lung; assay: NCI tumour cell line growth inhibition, 48 h
Where a SMILES comes first, the peptide text is derived from it. The star is where a group is joined. Boc = CC(C)(C)OC(=O)*; OBn = c1ccc(CO*)cc1
Form field: TGI (one value per entry).

Below are worked cases with known answers.
[
  {
    "compound": "NCCCCC1NC(=O)C(CC(=O)O)NC(=O)CNC(=O)C(CCCN=C(N)N)NC(=O)C(N)CSSCC(C(=O)O)NC(=O)C(CC(=O)O)NC(=O)C2CCCN2C(=O)CNC1=O (stereo not drawn)",
    "recordedValue": "> 100 µM"
  },
  {
    "compound": "CCOC(=O)c1c(C)nc2c(c1-c1cn(-c3ccccc3)nc1-c1ccccc1)C(=O)c1ccccc1-2",
    "recordedValue": "> 100 µM"
  },
  {
    "compound": "COCC1OC(S(=O)(=O)c2ccccc2)C(O)C(OC)C1OC (stereo not drawn)",
    "recordedValue": "> 100 µM"
  }
]

Data request: Sample `Cc1ccc(-c2cc(O)c3nc4ccccc4n3c2)cc1` — what was its TGI?
Data returned: > 100 µM

Data request: Sample CC(C)CC(NC(=O)OC(C)(C)C)C(=O)NC(CC(=O)OCc1ccccc1)C(=O)OCc1ccccc1 (stereo not drawn) (Boc-Leu-Asp(OBn)-OBn; configuration not given here) — what was its TGI?
Data returned: > 100 µM

###

Form field: TGI (one value per entry).
test system: SW-620 colon; experiment: NCI tumour cell line growth inhibition, 48 h

Below are worked cases with known answers.
[
  {
    "compound": "CCc1cccc(C)c1N1C(=O)C(=O)C(c2nc3ccccc3o2)C(=O)C1=O",
    "recordedValue": "> 100 µM"
  },
  {
    "compound": "NNc1cnn(-c2ccccc2)c(=O)c1Cl",
    "recordedValue": "> 100 µM"
  },
  {
    "compound": "COc1ccc(/C=C/C(=O)c2ccc(-n3cc(CN4CCN(c5cc6c(cc5F)c(=O)c(C(=O)O)cn6C5CC5)CC4)nn3)cc2)cc1OC",
    "recordedValue": "6.98 µM"
  },
  {
    "compound": "[O-]c1ccccc1C=Nc1ccc2c(c1)CCC2.[O-]c1ccccc1C=Nc1ccc2c(c1)CCC2.[O]=[U+2]=[O]",
    "recordedValue": "> 100 µM"
  },
  {
    "compound": "O=c1cc(-c2ccc(O)cc2)oc2cc(O[C@@H]3O[C@H](CO)[C@@H](O)[C@H](O)[C@H]3O)cc(O)c12",
    "recordedValue": "> 100 µM"
  },
  {
    "compound": "COC(=O)C1=C(CS(=O)c2ccc([N+](=O)[O-])cc2[N+](=O)[O-])C2C=CC1C2 (stereo unspecified)",
    "recordedValue": "28.6 µM"
  },
  {
    "compound": "O=CC(O)C(O)C(O)C1CNC(=S)O1 (stereo unspecified)",
    "recordedValue": "> 100 µM"
  },
  {
    "compound": "CNNC(=N\\S(=O)(=O)c1cc(C)c(Cl)cc1SCc1ccccc1)/N=C/c1ccc([N+](=O)[O-])s1",
    "recordedValue": "> 100 µM"
  }
]

Data request: Sample `O=C(O)c1cc(=O)c2c([nH]c3ccccc32)s1` — what was its TGI?
Data returned: > 100 µM

Data request: Sample `CCn1c(-c2cc3c([nH]c4ccccc43)c(-c3cccc(O)c3)n2)n[nH]c1=S` — what was its TGI?
Data returned: 18.9 µM

Data request: Sample CC1(C)CC2(C)CC1CC2(O)c1ccccc1 (stereo unspecified) — what was its TGI?
Data returned: > 100 µM

###

tested on: SF-539 CNS; test: NCI tumour cell line growth inhibition, 48 h
Form field: TGI (one value per entry).

[
  {
    "molecule": "CC(C)(O)C1CC[C@]2(C)[C@H]3CC[C@@H]4[C@@]5(C)CCCC(C)(C)[C@@H]5CC[C@@]4(C)[C@]3(C)CC[C@@H]12 (stereo partly drawn)",
    "recordedValue": "> 100 µM"
  },
  {
    "molecule": "CN1CCN(CCOc2ccc(-c3cnc4c(-c5cccc(F)c5)cnn4c3)cc2)CC1",
    "recordedValue": "2.88 µM"
  },
  {
    "molecule": "O=[N+]([O-])c1ccc2oc(=Nc3ccccc3)c(Nc3ccccc3)nc2c1",
    "recordedValue": "> 100 µM"
  }
]

Data request: SF-539 CNS / TGI / Cc1cc(NC(=O)C2C3C=CC(O3)C2C(=O)O)no1 (stereo not drawn) : value?
Data returned: 54.9 µM

Data request: SF-539 CNS / TGI / `CCOC(=O)c1c(C)n(Cc2ccc(Cl)cc2Cl)c2c1cc1oc(=O)c(=O)n3cnc2c13` : value?
Data returned: 38.3 µM

Data request: SF-539 CNS / TGI / Oc1ccccc1C1C=C(c2ccccc2)NC(N2CCCCC2)=C1c1nc2ccccc2[nH]1 (stereo not drawn) : value?
Data returned: 29.7 µM

###

tested on: HS 578T breast; test: NCI tumour cell line growth inhibition, 48 h
parameter: TGI

Below are worked cases with known answers.
[
  {
    "compound": "O=C(O)CC[P+](c1ccccc1)(c1ccccc1)c1ccccc1",
    "TGI": "> 100 µM"
  },
  {
    "compound": "O=[N+]([O-])c1ccc2oc(=Nc3ccccc3)c(Nc3ccccc3)nc2c1",
    "TGI": "> 100 µM"
  },
  {
    "compound": "Cc1nc2n(c1/C=C1/C(=O)Nc3ccccc31)CCS2",
    "TGI": "> 100 µM"
  }
]

Next compound, TGI to be filled in.
Data request: Sample COC(=O)c1c(CC(Cc2ccc3c(c2)CCCC3)C(=O)OC)ccc2c1CCCC2 (centres undefined) — what was its TGI?
Data returned: > 100 µM

###

tested on: CAKI-1 renal; assay: NCI tumour cell line growth inhibition, 48 h
Form field: TGI (one value per entry).

Below are worked cases with known answers.
[
  {
    "molecule": "O=S(=O)(c1ccc(-c2nnc(-c3ccc(F)cc3)o2)cc1)c1ccc(-c2nnc(-c3ccc(F)cc3)o2)cc1",
    "TGI": "> 100 µM"
  },
  {
    "molecule": "O=C(Sc1c(-c2ccccc2)c(=O)n(-c2ccccc2)c(=S)n1-c1ccccc1)c1cccs1",
    "TGI": "> 100 µM"
  },
  {
    "molecule": "CNNC(=N\\S(=O)(=O)c1cc(C)c(Cl)cc1SCc1ccccc1)/N=C/c1ccc([N+](=O)[O-])s1",
    "TGI": "> 100 µM"
  },
  {
    "molecule": "CS[C@]12[C@@H]3C(=O)N(C)C(=O)[C@@H]3[C@](C)(C(=O)N1C)C(=O)N2c1ccccc1",
    "TGI": "> 100 µM"
  },
  {
    "molecule": "CCCc1c(C(=O)OCC)[nH]c(-c2ccc(-c3[nH]c(C(=O)OCC)c(CCC)c3C(=O)OCC)s2)c1C(=O)OCC",
    "TGI": "> 100 µM"
  }
]

Data request: Sample `Cc1ccc2nc(-c3ccc(OCC(=O)N=Nc4c(O)[nH]c5ccccc45)cc3)[nH]c2c1` — what was its TGI?
Data returned: 10.2 µM

Data request: Sample `CC(C)c1nc(N(C)S(C)(=O)=O)nc(-c2ccc(F)cc2)c1/C=C/[C@@H](O)C[C@@H](O)CC(=O)O` — what was its TGI?
Data returned: > 100 µM

Data request: Sample COC(=O)C(=O)C(C(=O)C(=O)Nc1cccc([N+](=O)[O-])c1)c1nc2ccc(Cl)cc2[nH]c1=O (configuration not stated) — what was its TGI?
Data returned: > 100 µM

Data request: Sample `CCCCCCCCCC(=O)N[C@@H](c1ccco1)[C@@H](O)C(=O)O[C@H]1C[C@@]2(O)[C@@H](OC(=O)c3ccccc3)[C@@H]3[C@]4(OC(C)=O)CO[C@@H]4C[C@H](O)[C@@]3(C)C(=O)[C@H](OC(C)=O)C(=C1C)C2(C)C` — what was its TGI?
Data returned: > 38.9 µM

Data request: Sample `NC(=O)[C@@H](CC1CC1)[C@@H](CCC(F)(F)F)C(=O)N[C@H]1N=C(c2ccccc2)c2cccc(F)c2NC1=O` — what was its TGI?
Data returned: > 100 µM

Data request: Sample `COc1ccc(Nc2nc3ccccc3c3occc23)cc1` — what was its TGI?
Data returned: > 50 µM

Data request: Sample `Cc1ccnc2nc(N)ccc12` — what was its TGI?
Data returned: > 100 µM

Data request: Sample `CCc1ccccc1NC(=O)/C=C/c1ccccc1` — what was its TGI?
Data returned: > 100 µM

Data request: Sample `COC(=O)NNC(c1ccc(Cl)cc1)c1ccc(Cl)cc1` — what was its TGI?
Data returned: 35.7 µM

Data request: Sample `CCOC(=O)CN(Cn1cncn1)Cn1cncn1` — what was its TGI?
Data returned: > 100 µM

Data request: Sample `O=C1C=C2CCC[C@H]3OC(=O)C[C@@]23CC1` — what was its TGI?
Data returned: > 100 µM

Data request: Sample NCCCCC1NC(=O)C(CC(=O)O)NC(=O)CNC(=O)C(CCCN=C(N)N)NC(=O)C(N)CSSCC(C(=O)O)NC(=O)C(CC(=O)O)NC(=O)C2CCCN2C(=O)CNC1=O (configuration not stated) — what was its TGI?
Data returned: > 100 µM
